Recorded values, source patent US20070149508A1.

Target: Abl (T315I) (Homo sapiens, UniProt P00519, T315I)
Construct: purchased Upstate
Assay: Abl (T315I) Kinase Assay (KinaseGlo luminescent detection of residual ATP)
Format: biochemical
Conditions: Abl (T315I) IC50 (nM), Abl (T315I) (Upstate, 17 ng/well), Abltide 100 uM, ATP 500 nM, 60 minutes at 37° C.
Where a name gives a salt, the structure may show the parent alone.
Assay endpoint: IC50 (nM)

Look up IC50: `CCNC(=O)N1CCC(S(=O)(=O)c2ccc(Nc3ncc(/C=C/c4ccc5nc(N)sc5c4)cn3)cc2)CC1`
237

Let us now turn to `O=S(=O)(c1ccc(Nc2ncc(/C=C/c3cccc(O)c3)cn2)cc1F)N1CCNCC1`
266

Also, `O=S(=O)(CCCN1CCNCC1)c1ccc(Nc2ncc(/C=C/c3cccc4[nH]ccc34)cn2)cc1` please.
488

P = O=S(=O)(NCCO)c1ccc(Nc2ncc(/C=C/c3cccc(O)c3)cn2)cc1N1CCNCC1 [trifluoroacetic acid salt]
Q = O=S(=O)(c1ccc(Nc2ncc(/C=C/c3ccc(C(F)F)cc3)cn2)cc1)C1CCNCC1
Which item exceeds the other in IC50, P or Q ? Refer to your chosen entry by its label in the reply.
Q
(Q: 1330 nM, P: 514 nM)

1 = NCC(=O)N1CCC(S(=O)(=O)c2ccc(Nc3ncc(/C=C/c4cccc5[nH]ccc45)cn3)cc2)CC1 [hydrochloride]
2 = O=S(=O)(NCCO)c1ccc(Nc2ncc(/C=C/c3cccc4[nH]ncc34)cn2)cc1N1CCNCC1 [trifluoroacetic acid salt]
3 = Oc1cccc(/C=C/c2cnc(Nc3ccc(OCCN4CCCC4)cc3)nc2)c1 [trifluoroacetate]
Give the ascending ranking of the items by reported IC50. Would you mind listing the labels in the order asked for?
2, 3, 1
(2: 81 nM, 3: 297 nM, 1: 700 nM)

1 = Nc1nc2ccc(/C=C/c3cnc(Nc4ccc(S(=O)(=O)N5CCNCC5)c(C(F)(F)F)c4)nc3)cc2s1
2 = O=S(=O)(c1ccc(Nc2ncc(/C=C/c3cccc4[nH]ncc34)cn2)cc1)N1CCNCC1
3 = C(=C\c1cccc2[nH]ccc12)/c1cnc(Nc2ccc(C3CCNCC3)cc2)nc1
4 = O=S(=O)(c1ccc(Nc2ncc(/C=C/c3cccc(O)c3)cn2)cc1)N1CCNCC1
Hi! Can you put these in order of IC50, lowest number first? In your reply, arrange the labels in the requested order.
4, 2, 3, 1

1 = O=C(Nc1nc2ccc(/C=C/c3cnc(Nc4ccc(S(=O)(=O)C5CCNCC5)cc4)nc3)cc2s1)c1cccc(C(F)(F)F)c1 [Hydrochloride]
2 = O=S(=O)(c1ccc(Nc2ncc(/C=C/c3cccc(O)c3)cn2)cc1)N1CCC(CO)CC1
IC50 comparison. Which is larger, 1 or 2 ? Provide the label of your selected option as the answer.
1
(1: 332 nM, 2: 225 nM)

I = Nc1nc2ccc(/C=C/c3cnc(Nc4ccc(S(=O)(=O)C5CCCNCC5)cc4)nc3)cc2s1 (centres unmarked)
II = NS(=O)(=O)c1cccc(/C=C/c2cnc(Nc3ccc(S(=O)(=O)N4CCCNCC4)cc3)nc2)c1
III = O=S(=O)(c1ccc(Nc2ncc(/C=C/c3cccc(O)c3)cn2)cc1C(F)(F)F)N1CCNCC1
Arrange these 3 compounds in increasing order of IC50. Would you mind listing the labels in the order requested?
I, III, II
